- targetSystem: UniProt:P37231
- Sequence (P37231 1-505): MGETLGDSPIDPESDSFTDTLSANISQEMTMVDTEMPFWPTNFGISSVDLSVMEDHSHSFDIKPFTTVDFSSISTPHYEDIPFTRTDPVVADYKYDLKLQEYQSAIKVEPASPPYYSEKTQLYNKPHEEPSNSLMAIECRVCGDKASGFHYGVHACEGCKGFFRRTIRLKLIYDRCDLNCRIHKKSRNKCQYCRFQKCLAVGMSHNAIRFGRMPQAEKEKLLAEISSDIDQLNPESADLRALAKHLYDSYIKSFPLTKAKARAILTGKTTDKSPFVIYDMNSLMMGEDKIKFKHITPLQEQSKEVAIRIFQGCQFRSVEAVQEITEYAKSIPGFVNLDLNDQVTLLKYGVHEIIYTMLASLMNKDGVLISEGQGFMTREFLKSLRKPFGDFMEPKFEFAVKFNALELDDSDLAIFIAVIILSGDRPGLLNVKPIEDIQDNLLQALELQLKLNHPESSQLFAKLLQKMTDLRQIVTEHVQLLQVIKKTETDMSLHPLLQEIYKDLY
- assayNotes: PPAR agonist activity in human cell lines expressing the three PPAR isotypes
- Format: cell-based
- conditionNotes: human cell lines expressing the PPAR isotypes
pEC50: −log10 of the molar value.
quantityName: pEC50

[[record]]
chemsmiles = "Cc1cc(OC/C=C(/c2ccc(F)cc2)c2ccc(C#CCN3CCOCC3)cc2)ccc1OCC(=O)O"
quantityname = "pEC50"
result = "< 5.00"


---

- assayNotes: Stability of solid state forms under static storage, re-analysed by XRPD
- Format: physicochemical
- conditionNotes: 40° C./75% RH/7 days
quantityName: solid state form by XRPD after storage

[[record]]
molecule = "Cc1cc(OC/C=C(/c2ccc(F)cc2)c2ccc(C#CCN3CCOCC3)cc2)ccc1OCC(=O)[O-].[Na+] [Form 4]"
result = "Form 1"

[[record]]
molecule = "Cc1cc(OC/C=C(/c2ccc(F)cc2)c2ccc(C#CCN3CCOCC3)cc2)ccc1OCC(=O)[O-].[Na+] [Form 3]"
result = "Form 1"


src = patent US11267795B2
